test: Cmax in CD-1 mouse at 40 mg/kg, ip by HPLC-MS/MS analysis; format: ADME, organism-based; parameters: route intraperitoneal, dose 40 mg/kg; settings: in vivo
Quantity Kind: Cmax
Param answer (str): number followed by unit.

Input line: I'd like to know its Cmax. The compound in question is `CCC(=O)N(CC1(N2CCN(CC(C)C)CC2)CCOCC1)c1cccc(C(F)(F)F)n1`
Output line: 11300 ng/mL

---

assay: Oral bioavailability in CD-1 mouse plasma at 10 mg/kg by HPLC-MS/MS analysis; assay type: ADME, organism-based
Quantity Kind: bioavailability
Enter the number, and then the unit.

Input line: Given `CCC(=O)N(CC1(N2CCN(CC(C)C)CC2)CCOCC1)c1cccc(C(F)(F)F)n1` , state its recorded bioavailability.
Output line: 13%

---

assay: Tmax in CD-1 mouse at 40 mg/kg, ip by HPLC-MS/MS analysis; format: ADME, organism-based; settings: in vivo
Quantity Kind: Tmax (min)
Please state the figure in min; there is no need to write the unit.

Input line: Look up Tmax for this compound: `CCC(=O)N(CC1(N2CCN(CC(C)C)CC2)CCOCC1)c1cccc(C(F)(F)F)n1`
Output line: 4.8

---

assay: Lipophilicity, logP of compound; format: physicochemical; conditions: octanol/water
Quantity Kind: logP
The reply should be a number, written without any unit.

Input line: Looking for the measured logP of `CCC(=O)N(CC1(N2CCN(CC(C)C)CC2)CCOCC1)c1cccc(C(F)(F)F)n1` , can you help?
Output line: 3.7

---

experiment: AUC in Wistar rat brain at 40 mg/kg, ip; type: ADME, organism-based; parameters: dose 40 mg/kg
Quantity Kind: AUC (ng·h/mL)
Enter your answer as a number in ng·h/mL; do not include the unit.

Input line: Which measured AUC value corresponds to `CCC(=O)N(CC1(N2CCN(CC(C)C)CC2)CCOCC1)c1cccc(C(F)(F)F)n1` ?
Output line: 2430

---

assay: AUC in CD-1 mouse at 40 mg/kg, ip by HPLC-MS/MS analysis; format: ADME, organism-based; design: dose 40 mg/kg; conditions: in vivo
Quantity Kind: AUC
Give the value; after it, write the unit.

Input line: Suppose we examine the compound `CCC(=O)N(CC1(N2CCN(CC(C)C)CC2)CCOCC1)c1cccc(C(F)(F)F)n1` ; what AUC value has been reported?
Output line: 5960 ng·h/mL

---

experiment: AUC(0 to t) in CD-1 mouse at 10 mg/kg, po by HPLC-MS/MS analysis; assay type: ADME, organism-based; parameters: dose 10 mg/kg; details: in vivo
Quantity Kind: AUC(0-t) (ng·h/mL)
Report the figure in ng·h/mL without appending any unit label.

Input line: Which AUC(0-t) value belongs to `CCC(=O)N(CC1(N2CCN(CC(C)C)CC2)CCOCC1)c1cccc(C(F)(F)F)n1` ?
Output line: 122

---

test: Tmax in CD-1 mouse at 10 mg/kg, po by HPLC-MS/MS analysis; format: ADME, organism-based; conditions: in vivo
Quantity Kind: Tmax (min)
Please reply with the bare figure in min and do not write the unit itself.

Input line: For the compound shown here, `CCC(=O)N(CC1(N2CCN(CC(C)C)CC2)CCOCC1)c1cccc(C(F)(F)F)n1` , give the reported Tmax.
Output line: 30

---

assay: Dissociation constant, pKa of compound; type: physicochemical
Quantity Kind: pKa
Number only, please.

Input line: Given the entry `CCC(=O)N(CC1(N2CCN(CC(C)C)CC2)CCOCC1)c1cccc(C(F)(F)F)n1` , report its measured pKa.
Output line: 8.9
